# key: entry, value: LD50
Test: in vivo
Details: mouse, in vivo, iv
test.readout: LD50 (mg/kg)

INSERT INTO assay_data (compound, test_readout, units, reported_measurement) VALUES
  ('CC(C)NCC(O)COc1cccc2[nH]ccc12 (stereo not shown) [Substance E, prindolol, reference compound]', 'LD50', 'mg/kg', 22.6),
  ('CC(=O)Nc1ccc(OCC(O)CNC(C)C)cc1 (stereo not shown) [Substance G, practolol, reference compound]', 'LD50', 'mg/kg', 121),
  ('CC(C)(C)NCC(O)COc1cccc2c1CCN(C=O)C2 (stereo not shown)', 'LD50', 'mg/kg', 128),
  ('CC(C)NCC(O)COc1cccc2c1CCN(C=O)C2 (stereo not shown)', 'LD50', 'mg/kg', 148);
